test system: c-Abl (mouse); experiment: phosphorylation enrichment, bacterial display (enrichment ratio); higher = better substrate or ligand; peptides without Tyr show the background
Here the recorded phosphorylation enrichment is given for each entry.
QUANTITY: phosphorylation enrichment

{"columns": ["SEQUENCE_DATA", "MEASURED"],
 "data": [
  ["VLTSKYHGGGG [HBA1_Y141_R142H]", 0.617],
  ["KLPDAYERLIL [G6PD_Y437]", 0.796],
  ["INSLKYAFNVS [EIF2B5_Y583_I587V_YF]", 0.593],
  ["GSERDYTYDEL [EIF2S2_Y174_E177D]", 0.803]
]}

====

Here the recorded phosphorylation enrichment is given for each entry.
molecular target: Fyn (UniProt P06241); assay: phosphorylation enrichment, bacterial display (enrichment ratio); higher = better substrate or ligand; peptides without Tyr show the background
Sequence (P06241 whole entry, looked up): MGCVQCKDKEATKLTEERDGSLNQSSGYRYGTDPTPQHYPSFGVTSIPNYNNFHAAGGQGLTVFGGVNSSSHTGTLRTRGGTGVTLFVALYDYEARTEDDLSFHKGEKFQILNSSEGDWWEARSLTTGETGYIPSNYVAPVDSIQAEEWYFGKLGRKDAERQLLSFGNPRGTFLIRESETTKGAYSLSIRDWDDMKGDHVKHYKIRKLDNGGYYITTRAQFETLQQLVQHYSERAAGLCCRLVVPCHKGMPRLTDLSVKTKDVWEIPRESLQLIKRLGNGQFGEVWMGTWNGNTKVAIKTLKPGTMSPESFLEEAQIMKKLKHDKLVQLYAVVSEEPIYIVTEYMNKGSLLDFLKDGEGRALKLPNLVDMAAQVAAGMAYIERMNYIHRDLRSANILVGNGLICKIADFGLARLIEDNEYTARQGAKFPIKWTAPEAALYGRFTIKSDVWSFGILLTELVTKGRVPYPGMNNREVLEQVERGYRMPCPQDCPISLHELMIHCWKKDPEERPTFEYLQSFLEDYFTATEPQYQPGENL

{"columns": ["SEQUENCE_DATA", "phosphorylation enrichment"],
 "data": [
  ["SVVVPFEPPEV [TP53_Y220_Y220F]", 0.41],
  ["IHFAIYFLKYS [ARMC9_Y107_L108F]", 0.723],
  ["SLNEEYTKNKT [MSH2_Y563]", 0.325],
  ["KDHPDYKYQRR [SOX10_Y171_P175R]", 0.283],
  ["NIQKKYFRAIL [CHD7_Y1217_YF]", 0.352],
  ["EDSEYYRAFEE [CASQ2_Y179_K180R]", 0.765],
  ["VPVNGYQPVTA [ROR2_Y824_P828T]", 0.541],
  ["QELRRYLKSGI [MICA_Y194_V199I]", 0.482],
  ["ESPGLCGFLNV [BCR_Y910_Y910C]", 0.494],
  ["LYSGDCYRIQG [DDR2_Y740_Y740C]", 1.18],
  ["RPGSGYTNIMQ [PKLR_Y564_R569Q]", 0.469],
  ["NNPAYYVLEGV [INPPL1_Y987]", 1.65],
  ["ITNHIYTWVDP [DFNB31_Y234_V229I]", 4.11],
  ["YMRGMYFRMTD [PLA2G6_Y541_K545T]", 0.434],
  ["DWQQEYVLNES [TGM1_Y267_R264Q]", 0.648],
  ["SRNKPYISWPS [CDC42BPB_Y1638]", 0.436],
  ["KEEEDYKEENN [BMS1_Y651]", 0.475],
  ["LDPDSYNKFEN [FOXC1_Y159_M161K]", 0.665],
  ["ASRKYYAMKIL [AKT3_Y174_G171R]", 0.348],
  ["ALLTKYSHSSM [DSCC1_Y374]", 0.578],
  ["LIGRRCDDPEV [HSPA9_Y128_Y128C]", 1.12],
  ["TVSRPYSFIEF [SEC22B_Y110]", 0.993],
  ["LKRIAYFLCLR [LGI1_Y21_L26R]", 0.399],
  ["SVTCTYSPALI [TP53_Y126_N131I]", 0.646],
  ["KELAPYDENWF [RPS19_Y48]", 0.506],
  ["SSVKLYRVYCD [FGB_Y266_P265L]", 0.479],
  ["FFVVEYRNQKP [MUC17_Y4332_D4334N_YF]", 0.623],
  ["DLAHKYHGGGG [HBB_Y146_A141D]", 0.373],
  ["DMQTLYVNTAA [SMCHD1_Y403]", 0.485],
  ["SLIDMYSEVPD [OPA1_Y268_L272P]", 0.595],
  ["VATRWYWSPEL [CDKL5_Y177_R178W]", 0.464],
  ["PQAVTYATVKH [LILRB4_Y360_K362T]", 1.72],
  ["LNGDRYFKGIV [DCX_Y64_R59L]", 2.87],
  ["SNKLFYQLEQE [PDPR_Y110_YF]", 1.45],
  ["NSIGNYFKPWF [DHCR24_Y299_YF]", 0.45],
  ["ARRMEYLASQK [FGFR2_Y616_G613R]", 0.367],
  ["HCEDGYPGGSD [CTNND1_Y221_Y217C]", 0.817]
]}

====

tested on: Fer (mouse); assay: phosphorylation enrichment, bacterial display (enrichment ratio); higher = better substrate or ligand; peptides without Tyr show the background

{"columns": ["SEQUENCE_DATA", "phosphorylation enrichment"],
 "data": [
  ["MCITQYKRESQ [PRNP_Y218_E219K]", 0.501],
  ["AIFWRYSKFFD [SH3PXD2B_Y45_R43W_YF]", 0.49],
  ["GMEIVYVFVKK [DNAI2_Y5_YF]", 0.58],
  ["QFPDIYAREEV [CRX_Y67_V66I_YF]", 0.707],
  ["ALLTKYSHSSM [DSCC1_Y374]", 0.56],
  ["IIAVHYVLEES [RYR2_Y4559]", 0.501],
  ["REENGYNTFAS [FGF10_Y161_I156R_YF]", 0.558],
  ["KDHRDYKYQPR [SOX9_Y172_P170R]", 0.445],
  ["HITQVYGFYDE [PPP2CA_Y127_Q122H]", 2.21],
  ["GKSHIYFWTLD [EML2_Y230_E235D]", 0.508],
  ["KELAPYDENWF [RPS19_Y48]", 0.53],
  ["RSRSPYSSRHS [CDK13_Y415]", 0.439],
  ["TENAGYFFRIS", 0.487]
]}

====

target: SHP2-C SH2; assay: SH2 binding enrichment of the phosphorylated peptide, bacterial display (enrichment ratio); higher = better substrate or ligand; peptides without Tyr show the background

{"columns": ["SEQUENCE_DATA", "SH2 binding enrichment"],
 "data": [
  ["GIVEDYRPPFC [ACVRL1_Y421_Y426C]", 0.713],
  ["FGPPQYNMQFS [ERBB2IP_Y977_I979M_YF]", 0.653],
  ["ADRNHYRRYRR [YBX1_Y145_P149R]", 0.467],
  ["PPKFFYTRKLL [CYBB_Y41]", 0.709],
  ["SSQHRYSTPHA [RAF1_Y232]", 0.898],
  ["SGSIHYSHVPR [GLB1_Y57_R59H]", 1.55],
  ["NFDRVYIYHLR [MYOF_Y1137]", 5.25],
  ["NNPAYYVLEGV [INPPL1_Y987]", 1.02],
  ["DMQTLYVNTAA [SMCHD1_Y403]", 0.643],
  ["YQNGMYGLHQD [SGSH_Y89_H84Y]", 0.585],
  ["DPHKIFEFVNS [IRF3_Y107_Y107F]", 0.703],
  ["TQFWRYFAGNL [SLC25A5_Y112_L111R]", 0.894],
  ["SVVVPFEPPEV [TP53_Y220_Y220F]", 0.537],
  ["ELRGTYTSLQQ [KIF3C_Y574]", 4.42],
  ["MKKKIYAMGGG [GAN_Y424]", 0.979],
  ["DLDLTSIYPNI [PTEN_Y27_Y27S]", 0.614],
  ["KDHPDYKYQRR [SOX10_Y171_P175R]", 1.17],
  ["AFGTVYKGLWI [EGFR_Y727]", 1.3],
  ["YAADYYKLLGN [ROR2_Y646]", 0.467],
  ["LQFRNYQQLFD [MAN2A1_Y442_K440R]", 0.947],
  ["FDAHNYHPLPV [OAT_Y55_G51D_YF]", 0.634]
]}

====

biological target: Grb2 SH2 (UniProt P62993); experiment: SH2 binding enrichment of the phosphorylated peptide, bacterial display (enrichment ratio); higher = better substrate or ligand; peptides without Tyr show the background
Sequence (P62993 whole entry, looked up): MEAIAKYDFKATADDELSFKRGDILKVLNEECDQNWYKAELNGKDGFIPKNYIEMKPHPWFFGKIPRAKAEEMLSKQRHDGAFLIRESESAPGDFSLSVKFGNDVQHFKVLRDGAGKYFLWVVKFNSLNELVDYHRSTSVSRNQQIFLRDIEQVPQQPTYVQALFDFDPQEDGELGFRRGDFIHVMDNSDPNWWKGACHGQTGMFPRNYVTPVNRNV
Recorded SH2 binding enrichment determines the group label, using low = under 0.8, intermediate = from 0.8 up to 1, high = 1 and over

{"columns": ["SEQUENCE_DATA", "ASSIGNED_CATEGORY"],
 "data": [
  ["GRTGHYLCNAC [GATA1_Y223_D218G]", "high"],
  ["DPEATYTTSGS [EPHA2_Y772_G777S]", "intermediate"],
  ["KSLFHHRQYSA [CPS1_Y1491_Y1491H]", "low"],
  ["QRRNVYFFSFL [PTEN_Y176_Y174N_YF]", "high"],
  ["SDMGQYQCLVF [AXL_Y115_T112M]", "low"],
  ["KLFRVYCDMNT [FGB_Y269_P265L_YF]", "low"],
  ["GIVEDYRPPFC [ACVRL1_Y421_Y426C]", "intermediate"],
  ["LSIWPYLQKID [MFSD8_Y63_M58L]", "high"],
  ["RGERPYGGGGG [FUS_Y526_R522G]", "high"],
  ["QHVPDYRQNVF [PCDHGA1_Y890_YF]", "intermediate"],
  ["PTATSYNPNLA [GABRA1_Y375_T376N]", "intermediate"],
  ["GIFKDYFRFNF [PLA2G2D_Y85_S80G_YF]", "high"],
  ["VGTKRYMAPDV [ACVRL1_Y375_E379D]", "low"],
  ["AIIGIYILRDN [CDH23_Y2949_D2954N]", "high"],
  ["RFVSRYIFNRE [HLA-DQB1_Y62_T60S_YF]", "low"],
  ["PGIRMYQVQYN [LRFN1_Y454]", "high"],
  ["SENPKYPEVGD [TMEM43_Y233]", "high"],
  ["LHVGFYESDVM [A2M_Y708_R704H]", "intermediate"],
  ["EDSEYYRAFEE [CASQ2_Y179_K180R]", "intermediate"],
  ["HITQVYGFYDE [PPP2CA_Y127_Q122H]", "low"],
  ["SGIFQYIIAKF [FOXL2_Y83_YF]", "high"],
  ["NLFIEYPTGSG [IRF2BPL_Y423_K418N]", "low"],
  ["YGGLRCGYGVL [KRTAP20-2_Y13_Y13C]", "intermediate"],
  ["LQRVQCDLQKA [DSP_Y1512_Y1512C]", "low"],
  ["FFVVEYRNQKP [MUC17_Y4332_D4334N_YF]", "high"],
  ["GAAMLYYPSVS [GPR143_Y177]", "low"],
  ["RVILRYVNPGN [LAMA3_Y791_T796N]", "high"],
  ["YFCRWYRNQKS [EREG_Y144_R147Q]", "low"],
  ["LGRGKSSEVFE [CSNK2A1_Y50_Y50S]", "low"],
  ["AKLDEYIAIAK [RCOR3_Y46]", "intermediate"],
  ["SNFRAYATEPH [TNNI3_Y29_YF]", "low"],
  ["SHNELYFEAAE [VANGL1_Y344_E347A_YF]", "low"],
  ["FGPPQYNMQFS [ERBB2IP_Y977_I979M_YF]", "intermediate"],
  ["VKRNRYKDILP [PTPN12_Y64_K61R]", "low"],
  ["PVKSEYSSIKL [NPC2_Y119_P120S]", "low"],
  ["PSRKDYETYQP [CTNND2_Y1154]", "intermediate"],
  ["LSIQCYLRALD [HMGCS2_Y262]", "low"],
  ["NTDETYCIDNE [TUBB2B_Y200]", "intermediate"],
  ["RGYRQYAYDGK [HLA-A_Y140_D140Y]", "low"],
  ["CTTIHYNYMSN [TP53_Y234_C238S]", "intermediate"],
  ["EKKDVYKAGEQ [CFH_Y1008]", "intermediate"],
  ["HEDPMYDIIRD [RP9_Y142]", "low"],
  ["IIAVHYVLEES [RYR2_Y4559]", "high"],
  ["CLAKMYFSAVD [CP_Y539_YF]", "intermediate"],
  ["RLLVVYPWNQR [HBB_Y36_T39N]", "high"]
]}

meta.source: the supplement of paper PMC10065799
